src = ChEMBL document CHEMBL3392986

METHOD: Therapeutic index, ratio of CC50 for human HuH7 cells to EC50 for HCV genotype 1b infected in human Huh7 cells
DETAILS: HuH7 cells
Our labelling divides records by selectivity ratio into ranges: Low (below 20), Medium (20 to below 60), High (60 or more)

compound=COc1ccc(Cn2ccc3ccc(C(=O)NO)cc32)cc1 label_class=Low
compound=O=C(NO)c1cc2ccccc2o1 label_class=Medium
compound=COc1cc(NC(=O)CCCCCCC(=O)NO)ccc1-c1cnco1 label_class=Low
compound=O=C(NO)c1cc2cc(Cl)ccc2s1 label_class=Medium
compound=O=C(NO)c1sc2ccccc2c1S(=O)(=O)c1ccccc1 label_class=High
compound=O=C(NO)c1cc2ccccc2s1 label_class=Medium
compound=O=C(/C=C/c1ccc(C(F)(F)F)cc1)NO label_class=High
compound=O=C(NO)c1cc2ccc([N+](=O)[O-])cc2s1 label_class=Low
compound="O=C(/C=C/c1ccc(Cl)cc1Cl)NO [CINNAMIC ACID HYDROXAMATE]" label_class=High
compound=O=C(/C=C/c1ccc([N+](=O)[O-])cc1)NO label_class=High
compound=O=C(/C=C/c1ccc(C(F)(F)F)cc1Cl)NO label_class=Low

----------
METHOD: Therapeutic index, ratio of CC50 for human HuH7 cells to EC50 for HCV genotype 1b infected in human Huh7 cells
DETAILS: HuH7 cells
OUTCOME_MEASURE: selectivity ratio

smiles_text=O=C(/C=C/c1c(F)cc(C(F)(F)F)cc1F)NO value_modifier== observed_result=22
smiles_text=O=C(/C=C/c1ccc(C(F)(F)F)cc1F)NO value_modifier== observed_result=117
smiles_text=C/C(=C\C(=O)NO)c1ccccc1 value_modifier== observed_result=18
smiles_text=O=C(/C=C/c1ccc(C(F)(F)F)nc1)NO value_modifier== observed_result=48
smiles_text=O=C(NO)c1cc2cc([N+](=O)[O-])ccc2s1 value_modifier== observed_result=14
smiles_text=O=C(NO)c1ccc(C(F)(F)F)cc1 value_modifier=> observed_result=18
smiles_text=O=C(/C=C/c1ccc(C(F)(F)F)cn1)NO value_modifier== observed_result=34

----------
cytotoxicity at 72 h, 1 µM values for the molecules below.
METHOD: Cytotoxicity against human HuH7 cells assessed as inhibition of cell viability at 1 uM after 3 days by CellTiter 96 assay
Assay type: cell-based, Huh-7
DETAILS: read-out: INH
OUTCOME_MEASURE: cytotoxicity at 72 h, 1 µM (%)

smiles_text=CS(=O)(=O)c1ccc(/C=C/C(=O)NO)cc1 unit_abbrev=% observed_result=0
smiles_text=O=C(NO)c1cc2cc(C(F)(F)F)ccc2s1 unit_abbrev=% observed_result=10
smiles_text=O=C(NO)c1cc2ccc(C(F)(F)F)cc2s1 unit_abbrev=% observed_result=4
smiles_text=N#Cc1ccc(/C=C/C(=O)NO)cc1 unit_abbrev=% observed_result=16

----------
METHOD: Cytotoxicity against human HuH7 cells assessed as inhibition of cell viability at 10 uM after 3 days by CellTiter 96 assay
Assay type: cell-based, Huh-7
DETAILS: read-out: INH
Lab note: anything with cytotoxicity at 72 h, 10 µM at or over 7% counts as met; the rest go in not met.

smiles_text=COC(=O)/C=C/c1ccc(C(F)(F)F)cc1 label_class="not met"
smiles_text=O=C(NCC1(c2nc(-c3ccccc3)cs2)CCOCC1)c1cccc(-c2noc(C(F)(F)F)n2)c1 label_class=met
smiles_text=COC(=O)c1sc2ccccc2c1S(=O)(=O)c1ccccc1 label_class="not met"
smiles_text=NC(=O)/C=C/c1ccc(C(F)(F)F)cc1 label_class="not met"
smiles_text=O=C(NO)c1sc2ccccc2c1Sc1ccccc1 label_class="not met"
smiles_text=O=C(CCc1ccc(C(F)(F)F)cc1)NO label_class="not met"
smiles_text=Nc1ccccc1NC(=O)/C=C/c1ccc(C(F)(F)F)cc1 label_class=met
smiles_text=O=C(NO)c1cn(Cc2ccccc2)c2ccccc12 label_class=met
smiles_text=O=C(NO)c1cc2ccccc2n1-c1ccccc1 label_class=met
smiles_text=O=C(O)/C=C/c1ccc(C(F)(F)F)cc1 label_class="not met"
smiles_text=O=C(NO)c1cc2cc(C(F)(F)F)ccc2s1 label_class="not met"
smiles_text=O=C(/C=C/c1ccccn1)NO label_class="not met"

----------
METHOD: Cytotoxicity against human HuH7 cells assessed as inhibition of cell viability after 3 days by CellTiter 96 assay
CC50 at 72 h values for the compounds below.
OUTCOME_MEASURE: CC50 at 72 h

compound="O=C(NO)c1sc2ccccc2c1[S+]([O-])c1ccccc1 (stereo not drawn)" observed_result="> 50 µM"
compound=O=C(NO)c1ccc(C(F)(F)F)cc1 observed_result="> 100 µM"
compound=O=C(/C=C/c1ccc(Cl)cc1)NO observed_result="> 50 µM"
